Origin of measurements: patent US9359349B2

observation.type: IC50

Considering Cc1nc(Nc2cccnc2)nc2ccc(-c3cccc(O)c3)cc12 , its IC50 with mTOR (Homo sapiens, UniProt P42345) was recorded as > 1000 nM

Observed IC50 on mTOR (Homo sapiens, UniProt P42345), entry Cc1nc(Nc2cccnc2)nc2ccc(-c3cc(O)cc(F)c3)cc12 , equals > 1000 nM

Short answer on mTOR (Homo sapiens, UniProt P42345) for CNc1nc(C)c2cc(-c3cccc(O)c3)ccc2n1 , IC50: > 1000 nM

Measured IC50 for this entry Nc1ncc2cc(-c3cccc(O)c3)ccc2n1 on mTOR (Homo sapiens, UniProt P42345): > 1000 nM

The molecule CNc1nc(C)c2cc(-c3cc(O)cc(F)c3)ccc2n1 , tested on mTOR (Homo sapiens, UniProt P42345), showed IC50 of > 1000 nM

====

Exercise: for every item that follows, state its recorded pIC50.
pIC50: −log10 of the molar value.

# pIC50 measured on UniProt P48736 for item Cc1nc(N)nc2ccc(-c3cccc(O)c3)cc12 = > 7.00

Summary line: Cc1nc(Nc2cccnc2)nc2ccc(-c3cc(O)cc(F)c3)cc12 , UniProt P48736, reported pIC50 = > 7.00

The reported pIC50 value, UniProt P48736, for CNc1nc(C)c2cc(-c3cccc(O)c3)ccc2n1 reads > 7.00

# pIC50 measured on UniProt P48736 for item Cc1nc(Nc2cccnc2)nc2ccc(-c3cccc(O)c3)cc12 = > 7.00

Field pIC50 (system: UniProt P48736) for entry CNc1nc(C)c2cc(-c3cnc4[nH]ccc4c3)ccc2n1 = > 6.30

Form: item CNc1nc(C)c2cc(-c3cc(O)cc(F)c3)ccc2n1 ; test system UniProt P48736; pIC50: > 7.00

====

Please respond with reported EC50 for every item in the list.
- System: PC-3
- assay.details: Tumor cell line proliferation assay (Alamar Blue), PC-3
- Format: cell-based
- recorded.conditions: Homo sapiens; PC-3 cells

Given item CNc1nc(C)c2cc(-c3ccc(O)c(Cl)c3)ccc2n1 , the value recorded as its EC50 is ≤ 20 µM

The compound listed as CNc1nc(C)c2cc(-c3ccc(O)c(F)c3)ccc2n1 has a reported EC50 of ≤ 50 µM

So, Cc1nc(Nc2cccnc2)nc2ccc(-c3cc(O)cc(F)c3)cc12 ? Its EC50 was ≤ 20 µM

Sample CNc1nc(C)c2cc(-c3cccc(O)c3)ccc2n1 ; EC50 observed: ≤ 50 µM

// field: EC50; key: Cc1nc(N)nc2ccc(-c3cccc(O)c3)cc12 ; value = ≤ 20 µM

Just so you know, measured EC50 for CNc1nc(C)c2cc(-c3cnc4[nH]ccc4c3)ccc2n1 came out at ≤ 50 µM

The reported EC50 of the compound Cc1nc(Nc2cccnc2)nc2ccc(-c3cccc(O)c3)cc12 was ≤ 50 µM

Note to self: EC50 recorded for CNc1nc(C)c2cc(-c3ccc(F)c(O)c3)ccc2n1 was ≤ 20 µM

# EC50 of CNc1nc(C)c2cc(-c3cc(O)cc(F)c3)ccc2n1 = ≤ 20 µM

GET /value?item= Cc1nc(N)nc2ccc(-c3cnc4[nH]ccc4c3)cc12 &field=EC50 returns ≤ 50 µM

Lookup result for Nc1ncc2cc(-c3cccc(O)c3)ccc2n1 ; measured EC50: ≤ 50 µM
